src = patent US20060276464A1

Protein target, amino acids: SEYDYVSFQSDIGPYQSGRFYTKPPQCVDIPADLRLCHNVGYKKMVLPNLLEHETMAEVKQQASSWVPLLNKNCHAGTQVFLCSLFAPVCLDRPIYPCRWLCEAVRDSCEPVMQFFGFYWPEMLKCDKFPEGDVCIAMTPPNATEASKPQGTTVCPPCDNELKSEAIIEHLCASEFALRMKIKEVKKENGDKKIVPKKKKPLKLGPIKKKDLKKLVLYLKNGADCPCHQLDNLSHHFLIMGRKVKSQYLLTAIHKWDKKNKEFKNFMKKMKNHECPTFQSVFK
endpoint: IC50 (nM)

> print(dat)
                             molecule.smiles  endpoint  reading
 1  O=S(=O)(NCCc1nn[nH]n1)c1cc(S(=O)(=O)c2ccccc2)ccc1C(F)(F)F      IC50     1800
 2  CCCCNC(=O)N(C)CCNS(=O)(=O)c1cc(S(=O)(=O)c2ccccc2)ccc1C(F)(F)F      IC50      260
 3  CCCc1ccc(S(=O)(=O)c2ccccc2)cc1S(=O)(=O)NCCCn1ccnc1      IC50      300
 4  CCCc1ccc(S(=O)(=O)c2ccccc2)cc1S(=O)(=O)NC1CCN(C(=O)OC(C)(C)C)CC1      IC50      700
 5  Cc1ccc(S(=O)(=O)c2ccccc2)cc1S(=O)(=O)NC1CCN(C(=O)c2ccc3ccccc3c2)CC1      IC50     1400
 6  COc1cccc(S(=O)(=O)c2ccc(C(F)(F)F)c(S(=O)(=O)NC3CCN(C(=O)c4ccc(C(C)(C)C)cc4)CC3)c2)c1      IC50      300
 7  CCc1ccc(S(=O)(=O)c2ccccc2)cc1S(=O)(=O)NCCCN(CC)CC      IC50    16000
 8  CC(=O)N1CC[C@@H](C(=O)N2CCC(NS(=O)(=O)c3cc(S(=O)(=O)c4ccccc4)ccc3C(F)(F)F)CC2)C1      IC50       60
 9  Cc1ccc(S(=O)(=O)c2ccccc2)cc1S(=O)(=O)NC1CCN(Cc2ccccc2)CC1      IC50     5000
10  O=C(O)CCNS(=O)(=O)c1cc(S(=O)(=O)c2ccccc2)ccc1C(F)(F)F      IC50     4000
11  CCCc1ccc(S(=O)(=O)c2ccc(F)cc2)cc1S(=O)(=O)NC1CCN(C(=O)OC(C)(C)C)CC1      IC50     1600
12  CC(C)NC(=O)CN1CCC(NS(=O)(=O)c2cc(S(=O)(=O)c3ccccc3)ccc2C(F)(F)F)CC1      IC50      270
13  CC(C)(C)OC(=O)N1CC[C@H](NS(=O)(=O)c2cc(S(=O)(=O)c3ccccc3)ccc2C(F)(F)F)C1      IC50      100
14  O=C(c1ccnc(N2CCCC2)c1)N1CCC(NS(=O)(=O)c2cc(S(=O)(=O)c3ccccc3)ccc2C(F)(F)F)CC1      IC50      140
15  Cc1c(Br)cccc1S(=O)(=O)c1ccc(C(C)C)c(S(=O)(=O)NCCc2ccccn2)c1      IC50      700
16  N[C@H]1CC[C@H](NS(=O)(=O)c2cc(S(=O)(=O)c3ccccc3)ccc2C(F)(F)F)CC1      IC50      400
17  CC(C)c1cc(C(C)C)c(S(=O)(=O)c2ccccc2)cc1S(=O)(=O)NCCc1cccnc1      IC50      800
18  CC(C)(C)OC(=O)N1CC[C@@H](NS(=O)(=O)c2cc(S(=O)(=O)c3ccccc3)ccc2C(F)(F)F)C1      IC50       80
19  O=C(c1ccc(OC(F)(F)F)cc1)N1CCC(NS(=O)(=O)c2cc(S(=O)(=O)c3ccccc3)ccc2C(F)(F)F)CC1      IC50      400
20  CC(C)c1ccc(S(=O)(=O)c2ccc(F)cc2)cc1S(=O)(=O)NC1CCSCC1      IC50     1800
21  CNc1ccc(S(=O)(=O)c2ccc(C(C)C)c(S(=O)(=O)NC3CCNCC3)c2)cc1      IC50      500
22  O=S(=O)(NCCc1cccnc1)c1cc(S(=O)(=O)c2ccccc2)ccc1C(F)(F)F      IC50      160
23  CN(CCNS(=O)(=O)c1cc(S(=O)(=O)c2ccccc2)ccc1C(F)(F)F)C(=O)N(C)c1ccccc1      IC50      210
24  CC(C)c1ccc(S(=O)(=O)c2ccccc2)cc1S(=O)(=O)NCCc1cccnc1      IC50      300
25  C[C@H](CO)NS(=O)(=O)c1cc(S(=O)(=O)c2ccccc2)ccc1C(F)(F)F      IC50      800
26  COc1ccc(S(=O)(=O)c2ccc(C(F)(F)F)c(S(=O)(=O)NCCC#N)c2)cc1      IC50      250
27  CC(C)(C)OC(=O)N1CCC(CNS(=O)(=O)c2cc(S(=O)(=O)c3ccccc3)ccc2C(F)(F)F)CC1      IC50      300
28  CC(C)(C)OC(=O)N1CCC[C@H]1C(=O)N1CCC(NS(=O)(=O)c2cc(S(=O)(=O)c3cccc(C#N)c3)ccc2C(F)(F)F)CC1      IC50       60
29  Cc1c(Cl)cccc1S(=O)(=O)c1ccc(C(C)C)c(S(=O)(=O)NCCc2ccccn2)c1      IC50      700
30  CN(CCCNS(=O)(=O)c1cc(S(=O)(=O)c2ccccc2)ccc1C(F)(F)F)C(=O)CCC(=O)O      IC50      700
